Target: CDK2/Cyclin A2 (Homo sapiens) (UniProt P24941+P20248)
Experiment: Inhibition of CDK2/CyclinA2 (unknown origin) at 100 nM preincubated for 15 mins followed by substrate and ATP addition incubated for 10 mins by ADP-glo luminescent assay relative to control
Format: protein-complex assay
Conditions: time 25.0 min
result_type: inhibition (%)

Sample records with inhibition:
compound | u | measured
O=C(CCn1cc(COc2ccc(N(C(=O)CCl)C(C(=O)NCCc3ccccc3)c3cccs3)cc2Cl)nn1)NCCCO/N=C1/C(=C2/C(=O)Nc3cc(Br)ccc32)Nc2ccccc21 (stereo unspecified) | % | 22.4
O=C(CCn1cc(COc2ccc(N(C(=O)CCl)C(C(=O)NCCc3ccccc3)c3cccs3)cc2Cl)nn1)O/N=C1/C(=C2/C(=O)Nc3ccccc32)Nc2cc(Br)c(Br)cc21 (stereo unspecified) | % | 1.46
COc1ccc2c(c1)NC(=O)/C2=C1\Nc2ccccc2\C1=N/OCCCNC(=O)CCn1cc(COc2ccc(N(C(=O)CCl)C(C(=O)NCCc3ccccc3)c3cccs3)cc2Cl)nn1 (stereo unspecified) | % | 10.7

(I) O=C(CCn1cc(COc2ccc(N(C(=O)CCl)C(C(=O)NCCc3ccccc3)c3cccs3)cc2Cl)nn1)NCCCO/N=C1/C(=C2/C(=O)Nc3cc(F)ccc32)Nc2ccccc21 (stereo unspecified)
(II) O=C(CCn1cc(COc2ccc(N(C(=O)CCl)C(C(=O)NCCc3ccccc3)c3cccs3)cc2Cl)nn1)O/N=C1/C(=C2/C(=O)Nc3ccccc32)Nc2ccc(F)cc21 (stereo unspecified)
(III) O=C(CCn1cc(COc2ccc(N(C(=O)CCl)C(C(=O)NCCc3ccccc3)c3cccs3)cc2Cl)nn1)O/N=C1/C(=C2/C(=O)Nc3ccccc32)Nc2cc(Br)ccc21 (stereo unspecified)
Query :: Please list the entries, largest inhibition first. In your reply, arrange the labels in the requested order.
Result :: I, II, III
(I: 28.9%, II: 19.6%, III: 5.41%)

###

Experiment: Clearance in Sprague-Dawley rat at 10 mg/kg,iv administration measured upto 24 hrs by LC-MS/MS analysis
Type: ADME, organism-based
Details: in vivo
result_type: clearance (mL/min/kg)

compound | measured
COc1ccc2c(c1)NC(=O)/C2=C1\Nc2ccccc2\C1=N/OCCCNC(=O)CCn1cc(COc2ccc(N(C(=O)CCl)C(C(=O)NCCc3ccccc3)c3cccs3)cc2Cl)nn1 (stereo not drawn) | 10.2

(a) O=C1Nc2ccccc2/C1=C1/Nc2ccccc2/C1=N\O
(b) COc1ccc(N(C(=O)CCl)C(C(=O)NCCc2ccccc2)c2cccs2)cc1Cl (stereo not drawn)
Query :: Lowest clearance? choose a or b // respond with label for picked entry
Result :: a
(a: 12.8 mL/min/kg, b: 20.8 mL/min/kg)

###

Experiment: Toxicity in ICR mouse assessed as lethal dose at ip administration for 14 days
Assay type: organism-based
Conditions: in vivo, time 14 day
result_type: LD50 at 336 h (mg/kg)
Supply the numeric figure in mg/kg, leaving out any unit text.

Query :: Quick one: LD50 at 336 h of COc1ccc2c(c1)NC(=O)/C2=C1\Nc2ccccc2\C1=N/OCCCNC(=O)CCn1cc(COc2ccc(N(C(=O)CCl)C(C(=O)NCCc3ccccc3)c3cccs3)cc2Cl)nn1 (stereo unspecified) ?
Result :: 185

###

Target: CDK2/Cyclin A2 (Homo sapiens) (UniProt P24941+P20248)
Test: Inhibition of CDK2/CyclinA2 (unknown origin) at 100 nM preincubated for 15 mins followed by substrate and ATP addition incubated for 10 mins by ADP-glo luminescent assay relative to control
Format: protein-complex assay
Conditions: time 25.0 min
result_type: inhibition (%)

Completed entries (count: 2):
compound | u | inhibition
O=C(CCn1cc(COc2ccc(N(C(=O)CCl)C(C(=O)NCCc3ccccc3)c3cccs3)cc2Cl)nn1)O/N=C1/C(=C2/C(=O)Nc3ccccc32)Nc2ccc(Cl)cc21 (stereo unspecified) | % | 13.5
O=C(CCn1cc(COc2ccc(N(C(=O)CCl)C(C(=O)NCCc3ccccc3)c3cccs3)cc2Cl)nn1)O/N=C1/C(=C2/C(=O)Nc3ccccc32)Nc2ccc(Br)cc21 (stereo unspecified) | % | 13.3

(a) O=C(CCn1cc(COc2ccc(N(C(=O)CCl)C(C(=O)NCCc3ccccc3)c3cccs3)cc2Cl)nn1)O/N=C1/C(=C2/C(=O)Nc3ccccc32)Nc2cc(Cl)c(Cl)cc21 (stereo unspecified)
(b) O=C(CCn1cc(COc2ccc(N(C(=O)CCl)C(C(=O)NCCc3ccccc3)c3cccs3)cc2Cl)nn1)O/N=C1/C(=C2/C(=O)Nc3ccccc32)Nc2cc(F)ccc21 (stereo unspecified)
Query :: Parameter check: reported inhibition is higher for which label, a or b ? Respond using the label that marks the chosen record.
Result :: b
(b: 9.85%, a: 5.9%)

###

Target: CDK6/cyclin D3 (Homo sapiens)
Sequence (P30281 whole entry): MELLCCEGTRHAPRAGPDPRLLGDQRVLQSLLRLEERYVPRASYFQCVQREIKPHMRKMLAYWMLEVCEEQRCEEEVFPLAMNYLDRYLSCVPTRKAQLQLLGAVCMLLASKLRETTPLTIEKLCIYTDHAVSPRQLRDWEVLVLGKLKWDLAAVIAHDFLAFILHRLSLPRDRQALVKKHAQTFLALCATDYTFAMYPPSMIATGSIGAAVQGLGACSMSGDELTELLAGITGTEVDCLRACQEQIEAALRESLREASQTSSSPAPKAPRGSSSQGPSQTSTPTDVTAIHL
Sequence (Q00534 whole entry): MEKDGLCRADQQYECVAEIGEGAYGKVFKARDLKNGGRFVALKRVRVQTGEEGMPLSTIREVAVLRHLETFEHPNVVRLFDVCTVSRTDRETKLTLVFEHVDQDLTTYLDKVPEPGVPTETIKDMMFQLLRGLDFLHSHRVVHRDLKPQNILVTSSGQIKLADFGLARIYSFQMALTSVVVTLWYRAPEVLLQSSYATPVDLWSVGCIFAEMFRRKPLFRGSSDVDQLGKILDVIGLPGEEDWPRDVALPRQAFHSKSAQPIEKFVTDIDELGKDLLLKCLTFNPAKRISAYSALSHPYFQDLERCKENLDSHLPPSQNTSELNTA
Assay: Inhibition of CDK6/CyclinD3 (unknown origin) preincubated for 15 mins followed by substrate and ATP addition incubated for 10 mins by ADP-glo luminescent assay
result_type: pIC50
// pIC50: -log10(molar conc.)

Query :: # query: pIC50 of entry COc1ccc2c(c1)NC(=O)/C2=C1\Nc2ccccc2\C1=N/OCCCNC(=O)CCn1cc(COc2ccc(N(C(=O)CCl)C(C(=O)NCCc3ccccc3)c3cccs3)cc2Cl)nn1 (stereo unspecified)
Result :: 7.17

###

Experiment: MRT (0 to t) in Sprague-Dawley rat at 10 mg/kg,iv administration measured upto 24 hrs by LC-MS/MS analysis
Type: ADME, organism-based
Settings: in vivo
result_type: MRT last at 24 h (h)

molecule | u | MRT last at 24 h
COc1ccc2c(c1)NC(=O)/C2=C1\Nc2ccccc2\C1=N/OCCCNC(=O)CCn1cc(COc2ccc(N(C(=O)CCl)C(C(=O)NCCc3ccccc3)c3cccs3)cc2Cl)nn1 (stereo not drawn) | h | 3.6

(1) O=C1Nc2ccccc2/C1=C1/Nc2ccccc2/C1=N\O
(2) COc1ccc(N(C(=O)CCl)C(C(=O)NCCc2ccccc2)c2cccs2)cc1Cl (stereo not drawn)
Query :: Looking at recorded values for MRT last at 24 h, does 1 or 2 come in lower? I would appreciate it if you answered with the label of your choice.
Result :: 2

###

Assay: AUC (0 to t) in Sprague-Dawley rat at 10 mg/kg,iv administration measured upto 24 hrs by LC-MS/MS analysis
Format: ADME, organism-based
Conditions: in vivo
result_type: AUC(0-t) at 24 h (ng·h/mL)

compound | AUC(0-t) at 24 h / ng·h/mL
COc1ccc2c(c1)NC(=O)/C2=C1\Nc2ccccc2\C1=N/OCCCNC(=O)CCn1cc(COc2ccc(N(C(=O)CCl)C(C(=O)NCCc3ccccc3)c3cccs3)cc2Cl)nn1 (stereo not drawn) | 15700

(a) COc1ccc(N(C(=O)CCl)C(C(=O)NCCc2ccccc2)c2cccs2)cc1Cl (stereo not drawn)
(b) O=C1Nc2ccccc2/C1=C1/Nc2ccccc2/C1=N\O
Query :: Hi, I'm comparing a with b and wondering which one has the bigger number for AUC(0-t) at 24 h. Any idea? Which one? Tell me its label.
Result :: b

###

Target: CDK6/cyclin D3 (Homo sapiens) (UniProt P30281+Q00534)
Assay: Inhibition of CDK6/CyclinD3 (unknown origin) at 100 nM preincubated for 15 mins followed by substrate and ATP addition incubated for 10 mins by ADP-glo luminescent assay relative to control
Format: protein-complex assay
Conditions: time 25.0 min
result_type: inhibition (%)

compound | result_type | u | measured
O=C(CCn1cc(COc2ccc(N(C(=O)CCl)C(C(=O)NCCc3ccccc3)c3cccs3)cc2Cl)nn1)NCCCO/N=C1/C(=C2/C(=O)Nc3cc(F)c(F)cc32)Nc2ccccc21 (configuration not stated) | inhibition | % | 16.1
O=C(CCn1cc(COc2ccc(N(C(=O)CCl)C(C(=O)NCCc3ccccc3)c3cccs3)cc2Cl)nn1)O/N=C1/C(=C2/C(=O)Nc3ccccc32)Nc2cc(F)c(F)cc21 (configuration not stated) | inhibition | % | 24.4
O=C(CCn1cc(COc2ccc(N(C(=O)CCl)C(C(=O)NCCc3ccccc3)c3cccs3)cc2Cl)nn1)NCCCO/N=C1/C(=C2/C(=O)Nc3cc(F)ccc32)Nc2ccccc21 (configuration not stated) | inhibition | % | 36.8

(I) O=C(CCn1cc(COc2ccc(N(C(=O)CCl)C(C(=O)NCCc3ccccc3)c3cccs3)cc2Cl)nn1)O/N=C1/C(=C2/C(=O)Nc3ccccc32)Nc2cc(Cl)ccc21 (configuration not stated)
(II) O=C(CCn1cc(COc2ccc(N(C(=O)CCl)C(C(=O)NCCc3ccccc3)c3cccs3)cc2Cl)nn1)O/N=C1/C(=C2/C(=O)Nc3ccccc32)Nc2cc(Cl)c(Cl)cc21 (configuration not stated)
(III) O=C(CCn1cc(COc2ccc(N(C(=O)CCl)C(C(=O)NCCc3ccccc3)c3cccs3)cc2Cl)nn1)NCCCO/N=C1/C(=C2/C(=O)Nc3ccc(Br)cc32)Nc2ccccc21 (configuration not stated)
Query :: Ordering criterion: inhibition; begin with the maximum. Field: ranking. Enter the labels in the order requested.
Result :: I, III, II

(I) O=C1Nc2ccccc2/C1=C1/Nc2ccccc2/C1=N\O
(II) O=C(CCn1cc(COc2ccc(N(C(=O)CCl)C(C(=O)NCCc3ccccc3)c3cccs3)cc2Cl)nn1)O/N=C1/C(=C2/C(=O)Nc3ccccc32)Nc2cc(Br)c(Br)cc21 (configuration not stated)
(III) COc1ccc2c(c1)C(=N\OC(=O)CCn1cc(COc3ccc(N(C(=O)CCl)C(C(=O)NCCc4ccccc4)c4cccs4)cc3Cl)nn1)/C(=C1/C(=O)Nc3ccccc31)N2 (configuration not stated)
Query :: Rank items: key inhibition, increasing. I would appreciate it if you listed the labels in the requested order.
Result :: II, III, I
(II: 9.29%, III: 22%, I: 51.1%)
